subject.of.test: pregnane X receptor (PXR) (Homo sapiens, UniProt O75469)
Sequence (O75469 whole entry): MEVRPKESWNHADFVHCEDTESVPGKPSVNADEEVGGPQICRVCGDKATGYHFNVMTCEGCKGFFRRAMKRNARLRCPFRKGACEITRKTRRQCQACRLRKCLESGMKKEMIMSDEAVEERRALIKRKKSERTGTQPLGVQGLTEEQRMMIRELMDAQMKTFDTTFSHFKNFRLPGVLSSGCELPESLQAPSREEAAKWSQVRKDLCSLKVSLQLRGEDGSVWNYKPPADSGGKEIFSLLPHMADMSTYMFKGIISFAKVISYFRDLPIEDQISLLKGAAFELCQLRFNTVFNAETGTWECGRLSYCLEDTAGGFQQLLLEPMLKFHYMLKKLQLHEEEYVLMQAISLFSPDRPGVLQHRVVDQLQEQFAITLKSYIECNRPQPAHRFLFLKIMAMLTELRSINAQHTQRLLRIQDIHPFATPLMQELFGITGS
Type: cell-based
setup.conditions: human
measured.endpoint: fold induction at 24 h, 25 μg/mL

compound | measured.number
COc1cc(/C=C/C(=O)NCCc2ccc(O)cc2)ccc1O [N-trans-feruloyl tyramine] | 2.16
C=C(CC[C@@H](C)[C@H]1CC[C@@]2(C)[C@@H]3CC[C@H]4[C@H](C)[C@@H](O)CC[C@@]45C[C@@]35CC[C@]12C)C(C)C | 1.91

###

The entries below are paired with their reported CYP 3A4 Inhibition - IC50.
subject.of.test: CYP3A4 (Homo sapiens)
Sequence (P08684 whole entry): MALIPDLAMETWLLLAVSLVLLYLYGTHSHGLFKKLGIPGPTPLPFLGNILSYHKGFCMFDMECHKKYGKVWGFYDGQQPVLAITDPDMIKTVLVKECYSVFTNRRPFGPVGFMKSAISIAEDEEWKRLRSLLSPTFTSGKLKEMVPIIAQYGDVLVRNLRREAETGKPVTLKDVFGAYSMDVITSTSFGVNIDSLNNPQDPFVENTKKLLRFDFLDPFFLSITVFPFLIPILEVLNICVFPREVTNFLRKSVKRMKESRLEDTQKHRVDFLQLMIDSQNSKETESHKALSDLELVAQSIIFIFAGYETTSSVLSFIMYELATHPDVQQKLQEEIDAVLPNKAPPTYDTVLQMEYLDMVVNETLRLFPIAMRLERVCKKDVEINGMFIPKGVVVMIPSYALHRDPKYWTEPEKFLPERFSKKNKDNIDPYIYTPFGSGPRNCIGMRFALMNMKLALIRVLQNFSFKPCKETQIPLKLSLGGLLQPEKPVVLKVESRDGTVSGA
protocol.notes: Cytochrome P450
setup.conditions: 15 min incubation, 37 °C; mean ± SD of three experiments
measured.endpoint: CYP 3A4 Inhibition - IC50 (µg/mL)

compound | value.prefix | measured.number
COc1cc2c(cc1OC)-c1cc3ccc(OC)c(OC)c3c[n+]1CC2 [Palmatine, palmatine] | = | 34.00
COC(=O)C1=CCCC2C3(C)CC(c4ccoc4)OC(=O)C3=CC(OC3OC(CO)C(O)C(O)C3O)C12C (centres unmarked) [Borapetoside F, borapetoside F] | = | 13.00
COc1cc(/C=C/CO)cc(OC)c1O[C@@H]1O[C@H](CO)[C@@H](O)[C@H](O[C@@H]2OC[C@](O)(CO)[C@H]2O)[C@H]1O [Tinosinen, tinosinen] | > | 100
CC(=O)O[C@@H]1[C@@H]2[C@H](CC[C@@]3(O)C(=O)O[C@H](c4ccoc4)C[C@@]23C)[C@H](O[C@@H]2O[C@H](CO)[C@@H](O)[C@H](O)[C@H]2O)C[C@@H]1O [Tinosineside A, tinosineside A] | = | 45.00
COC(=O)C1=C[C@H](O)C[C@H]2[C@]3(C)C[C@@H](c4ccoc4)OC(=O)[C@@H]3C[C@@H](O[C@@H]3O[C@H](CO)[C@@H](O)[C@H](O)[C@H]3O)[C@@]12C | = | 29.00

###

The entries below are paired with their reported Fold induction in PXR activity.
subject.of.test: pregnane X receptor (PXR) (Homo sapiens, UniProt O75469)
Type: cell-based
setup.conditions: compounds at 12.5 μg/mL; HepG2, 24 h; mean ± SD; NA = No activation

compound | unit.tag | Fold induction in PXR activity
CC(=O)O[C@@H]1[C@@H]2[C@H](CC[C@@]3(O)C(=O)O[C@H](c4ccoc4)C[C@@]23C)[C@H](O[C@@H]2O[C@H](CO)[C@@H](O)[C@H](O)[C@H]2O)C[C@@H]1O [Tinosineside A, tinosineside A] | fold | 1.42
COc1cc(/C=C/CO)cc(OC)c1O[C@@H]1O[C@H](CO)[C@@H](O)[C@H](O[C@@H]2OC[C@](O)(CO)[C@H]2O)[C@H]1O | fold | 1.48
COc1cc2c(cc1OC)-c1cc3ccc(OC)c(OC)c3c[n+]1CC2 | fold | 1.08
COC(=O)C1=C[C@H](O)C[C@H]2[C@]3(C)C[C@@H](c4ccoc4)OC(=O)[C@@H]3C[C@@H](O[C@@H]3O[C@H](CO)[C@@H](O)[C@H](O)[C@H]3O)[C@@]12C | fold | 0.93

###

The entries below are paired with their reported Fold induction in PXR activity.
subject.of.test: UniProtKB O75469
Format: cell-based
setup.conditions: compounds at 25 μg/mL; HepG2, 24 h; mean ± SD; NA = No activation

compound | unit.tag | Fold induction in PXR activity
C[C@@]12C[C@@H](c3ccoc3)OC(=O)[C@@H]1CC[C@]1(C)[C@H]2[C@@H]2C=C[C@@]1(O)C(=O)O2 | fold | 2.89
COC(=O)C1=C[C@H](O)C[C@H]2[C@]3(C)C[C@@H](c4ccoc4)OC(=O)[C@@H]3C[C@@H](O[C@@H]3O[C@H](CO)[C@@H](O)[C@H](O)[C@H]3O)[C@@]12C | fold | 1.01
COc1cc2c(cc1OC)-c1cc3ccc(OC)c(OC)c3c[n+]1CC2 | fold | 1.30
CC(=O)O[C@@H]1[C@@H]2[C@H](CC[C@@]3(O)C(=O)O[C@H](c4ccoc4)C[C@@]23C)[C@H](O[C@@H]2O[C@H](CO)[C@@H](O)[C@H](O)[C@H]2O)C[C@@H]1O [Tinosineside A, tinosineside A] | fold | 1.50
COc1cc(/C=C/CO)cc(OC)c1O[C@@H]1O[C@H](CO)[C@@H](O)[C@H](O[C@@H]2OC[C@](O)(CO)[C@H]2O)[C@H]1O | fold | 1.67

###

subject.of.test: pregnane X receptor (PXR) (Homo sapiens, UniProt O75469)
Assay type: cell-based
setup.conditions: human
measured.endpoint: fold induction at 24 h, 5 µM

compound | measured.number
CO[C@H]1/C=C/O[C@@]2(C)Oc3c(C)c(O)c4c(O)c(c(/C=N/N5CCN(C)CC5)c(O)c4c3C2=O)NC(=O)/C(C)=C\C=C\[C@H](C)[C@H](O)[C@@H](C)[C@@H](O)[C@@H](C)[C@H](OC(C)=O)[C@@H]1C [Rifampicin, reference compound] | 3.24

###

The entries below are paired with their reported Fold induction in PXR activity.
subject.of.test: UniProt:O75469
Type: cell-based
setup.conditions: compounds at 50 μg/mL; HepG2, 24 h; mean ± SD; NA = No activation

molecule | Fold induction in PXR activity [fold]
CC(=O)O[C@@H]1[C@@H]2[C@H](CC[C@@]3(O)C(=O)O[C@H](c4ccoc4)C[C@@]23C)[C@H](O[C@@H]2O[C@H](CO)[C@@H](O)[C@H](O)[C@H]2O)C[C@@H]1O [Tinosineside A, tinosineside A] | 1.53
COc1cc(/C=C/CO)cc(OC)c1O[C@@H]1O[C@H](CO)[C@@H](O)[C@H](O[C@@H]2OC[C@](O)(CO)[C@H]2O)[C@H]1O | 1.42
COC(=O)C1=C[C@H](O)C[C@H]2[C@]3(C)C[C@@H](c4ccoc4)OC(=O)[C@@H]3C[C@@H](O[C@@H]3O[C@H](CO)[C@@H](O)[C@H](O)[C@H]3O)[C@@]12C | 1.39
C[C@@]12C[C@@H](c3ccoc3)OC(=O)[C@@H]1CC[C@]1(C)[C@H]2[C@@H]2C=C[C@@]1(O)C(=O)O2 | 3.58
COc1cc2c(cc1OC)-c1cc3ccc(OC)c(OC)c3c[n+]1CC2 | 1.43

###

subject.of.test: pregnane X receptor (PXR) (Homo sapiens, UniProt O75469)
Assay type: cell-based
setup.conditions: human
The entries below are paired with their reported fold induction at 24 h, 12.5 μg/mL.

compound | subject.of.test | fold induction at 24 h, 12.5 μg/mL
COc1cc(/C=C/C(=O)NCCc2ccc(O)cc2)ccc1O [N-trans-feruloyl tyramine] | pregnane X receptor (PXR) (Homo sapiens, UniProt O75469) | 1.59
C=C(CC[C@@H](C)[C@H]1CC[C@@]2(C)[C@@H]3CC[C@H]4[C@H](C)[C@@H](O)CC[C@@]45C[C@@]35CC[C@]12C)C(C)C [Cycloeucalenol, cycloeucalenol] | pregnane X receptor (PXR) (Homo sapiens, UniProt O75469) | 1.42
